- Test system: CfEcR + LmUSP
- MEASUREMENT_CONDITIONS: CfEcR + LmUSP in 3T3 cells, reporter assayed 48 h after ligand
Attribute: Fold Induction (10 μM)

{"columns": ["MOLECULE", "Fold Induction (10 μM)"],
 "data": [
  ["C[C@H]1C[C@H](Nc2ccc(F)cc2)c2cc(F)ccc2N1C(=O)c1ccccc1 (relative stereo)", "1 fold"],
  ["C[C@H]1C[C@H](Nc2ccc(F)cc2)c2cc(F)ccc2N1C(=O)c1ccc(F)c(C(F)(F)F)c1 (relative stereo)", "69 fold"],
  ["C[C@H]1C[C@H](Nc2ccc(F)cc2)c2cc(F)ccc2N1C(=O)c1ccc(F)c(Cl)c1 (relative stereo)", "2 fold"],
  ["C[C@H]1C[C@@H](Nc2ccc(F)cc2)c2cc(F)ccc2N1C(=O)c1ccccc1 (relative stereo)", "1 fold"],
  ["C[C@@H]1C[C@H](Nc2ccc(F)cc2)c2cc(F)ccc2N1C(=O)c1ccc(F)c(Cl)c1 (relative stereo)", "94 fold"],
  ["C[C@H]1C[C@H](Nc2ccc(F)cc2)c2cc(F)ccc2N1C(=O)c1ccc(F)cc1 (relative stereo)", "3 fold"],
  ["C[C@H]1C[C@@H](Nc2ccc(F)cc2)c2cc(F)ccc2N1C(=O)c1ccc(F)cc1 (relative stereo)", "3 fold"]
]}

###

- Test system: GAL4 DBD-CfEcR(DEF)/VP16AD-MmRXRE
- MEASUREMENT_CONDITIONS: CHO 13B3 clone, 48 h, average of two wells
Response key: 1 means Fold Induction Average, 13B3V1 Assay 33 μM >= 2 fold; -1 means Fold Induction Average, 13B3V1 Assay 33 μM < 2 fold.

{"columns": ["COMPOUND", "CLASS_ASSIGNMENT"],
 "data": [
  ["Cc1ccc(NC2CC(C)N(C(=O)c3ccc(F)cc3)c3ccc(C)cc32)cc1 (stereo not shown)", 1],
  ["CC1CC(Nc2ccccc2)c2ccccc2N1C(=O)C=Cc1ccccc1 (stereo not shown)", 1],
  ["Cc1ccc(C(=O)N2c3ccccc3C(Nc3ccccc3)CC2C)cc1 (mixture of isomers)", -1],
  ["C[C@H]1C[C@H](Nc2ccccc2)c2ccccc2N1C(=O)c1ccc(C(F)(F)F)c(F)c1 (relative stereo)", -1],
  ["Cc1ccc(C(=O)N2c3ccc(F)cc3[C@@H](Nc3ccc(F)cc3)C[C@@H]2C)cc1F (relative stereo)", 1],
  ["COc1ccc(C(=O)N2c3c(C)cccc3C(Nc3ccccc3C)CC2C)cc1 (stereo not shown)", -1]
]}

###

Attribute: Fold Induction Average, AA_3T3V1 Assay 33 μM
- TARGET_ENTITY: Gal4DBD/AaEcR (DEF) (Aedes aegypti)
- Construct: The wildtype D, E, and F domains from mosquito Aedes aegypti EcR; expressed in transfected cells; host or cells: 3T3 cells
- Sequence (P28704 286-520 A311G/G315S/G445S/I449V): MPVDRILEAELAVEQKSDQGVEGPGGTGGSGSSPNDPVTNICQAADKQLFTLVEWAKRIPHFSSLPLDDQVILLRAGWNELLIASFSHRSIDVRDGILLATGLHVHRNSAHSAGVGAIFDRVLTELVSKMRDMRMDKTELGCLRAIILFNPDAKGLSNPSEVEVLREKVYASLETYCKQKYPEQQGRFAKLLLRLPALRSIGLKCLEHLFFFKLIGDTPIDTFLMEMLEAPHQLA
- Sequence (P49880 405-776): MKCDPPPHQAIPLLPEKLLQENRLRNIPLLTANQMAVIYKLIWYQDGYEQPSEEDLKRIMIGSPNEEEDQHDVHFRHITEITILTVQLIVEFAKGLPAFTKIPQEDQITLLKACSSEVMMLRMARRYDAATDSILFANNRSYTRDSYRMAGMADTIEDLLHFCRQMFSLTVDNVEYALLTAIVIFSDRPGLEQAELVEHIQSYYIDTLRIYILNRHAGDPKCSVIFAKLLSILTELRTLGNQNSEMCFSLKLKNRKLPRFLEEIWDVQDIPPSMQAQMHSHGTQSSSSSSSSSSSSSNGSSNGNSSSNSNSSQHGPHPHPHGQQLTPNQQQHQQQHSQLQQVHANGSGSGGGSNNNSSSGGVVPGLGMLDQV
- ASSAY_COMMENT: cell-based
- Assay type: cell-based
- MEASUREMENT_CONDITIONS: 33 μM; 3T3 cells; 48 h; average of two wells
METRIC_NAME: Fold Induction Average, AA_3T3V1 Assay 33 μM (fold)

{"columns": ["COMPOUND", "ENDPOINT_UNIT", "READOUT_VALUE"],
 "data": [
  ["CC(C)C(=O)N1c2ccccc2C(N(C(=O)c2ccccc2)c2ccc([N+](=O)[O-])cc2)CC1C (stereo not drawn)", "fold", 1],
  ["C[C@H]1C[C@@H](Nc2ccc(F)cc2)c2cc(F)ccc2N1C(=O)c1ccc(F)c(F)c1 (relative stereo)", "fold", 132],
  ["Cc1ccccc1NC1CC(C)N(C(=O)c2ccccc2)c2c(C)cccc21 (stereo not drawn)", "fold", 1],
  ["COc1cccc(C(=O)N2c3ccccc3C(Nc3ccccc3)CC2C)c1 (stereo not drawn)", "fold", 212],
  ["CCc1ccc(C(=O)N2c3ccc(C)cc3[C@@H](Nc3ccc(C)cc3)C[C@@H]2C)cc1 (relative stereo)", "fold", 681],
  ["Cc1ccc(NC2CC(C)N(C(=O)c3ccc(C)cc3)c3ccccc32)cc1 (mixture of isomers)", "fold", 67],
  ["COc1cccc(C(=O)N2c3ccc(F)cc3C(Nc3ccc(F)cc3)CC2C)c1 (stereo not drawn)", "fold", 989],
  ["Cc1ccc(C(=O)N2c3ccc(F)cc3C(Nc3ccc(F)cc3)CC2C)cc1 (stereo not drawn)", "fold", 601],
  ["Cc1ccc(NC2CC(C)N(C(=O)c3ccccc3)c3ccc(C)cc32)cc1 (stereo not drawn)", "fold", 2],
  ["Cc1ccc(C(=O)N2c3ccccc3C(Nc3cccc(C)c3)CC2C)cc1 (mixture of isomers)", "fold", 26],
  ["Cc1ccc(N[C@H]2C[C@H](C)N(C(=O)c3ccc(C)c(F)c3)c3ccc(C)cc32)cc1 (relative stereo)", "fold", 132],
  ["COc1cccc(N(C(C)=O)C2CC(C)N(C(=O)c3ccccc3)c3ccccc32)c1 (stereo not drawn)", "fold", 1],
  ["Cc1ccc(C(=O)N2c3ccccc3C(N(C(=O)c3ccc(F)cc3)c3ccccc3)CC2C)cc1 (stereo not drawn)", "fold", 27],
  ["CC1CC(Nc2ccc(F)cc2)c2cc(F)ccc2N1C(=O)c1ccno1 (stereo not drawn)", "fold", 1421],
  ["Cc1ccc(NC2CC(C)N(C(=O)c3ccc(Cl)c(F)c3)c3ccc(C)cc32)cc1 (stereo not drawn)", "fold", 782]
]}
